In this section, each of the molecules is paired with its reported IC50.
Test system: Trypanosoma cruzi
Experiment: Growth inhibition of Trypanosoma cruzi intracellular amastigotes
Format: functional, organism-based
assay.endpoint: IC50 (µM)

chemical.structure	assay.system	assay.endpoint	units.symbol	test.result
O=P(O)(O)C(Nc1cccc(-c2ccccc2)c1)P(=O)(O)O	Trypanosoma cruzi	IC50	µM	47
CCn1c2ccccc2c2cc(NC(P(=O)(O)O)P(=O)(O)O)ccc21	Trypanosoma cruzi	IC50	µM	2.2

* * *

selectivity ratio values for the molecules below.
Tested on: TcHK
Experiment: Therapeutic index TI=LD50(KB)/IC50(TcHK)
Conditions: human, KB cells (cytotoxicity) versus TcHK enzyme
assay.endpoint: selectivity ratio

chemical.structure	assay.endpoint	test.result
O=[N+]([O-])c1cccc(NC(P(=O)(O)O)P(=O)(O)O)c1	selectivity ratio	≥ 266
COc1ccc(NC(P(=O)(O)O)P(=O)(O)O)cn1	selectivity ratio	≤ 1
Cc1cccc(Cc2ccc[n+](CC(O)(P(=O)(O)O)P(=O)(O)O)c2)c1	selectivity ratio	≤ 2.4
O=P(O)(O)C(O)(C[n+]1cccc(-c2ccccc2)c1)P(=O)(O)O	selectivity ratio	≤ 0.04
CCCNC(P(=O)(O)O)P(=O)(O)O	selectivity ratio	≤ 1.5
CC1CCN(C(P(=O)(O)O)P(=O)(O)O)CC1	selectivity ratio	≤ 1.5
O=P(O)(O)C(Nc1cccc(-c2ccc(F)c(F)c2)c1)P(=O)(O)O	selectivity ratio	≥ 285
O=P(O)(O)C(CNc1cccc(-c2ccccc2)c1)P(=O)(O)O	selectivity ratio	≥ 162
O=P(O)(O)C(NC1CC1)P(=O)(O)O	selectivity ratio	≤ 0.8

* * *

System: TcHK
Test: Therapeutic index TI=LD50(KB)/IC50(TcHK)
Conditions: human
Listed next: entries and their corresponding selectivity ratio.

chemical.structure	assay.system	selectivity ratio
O=P(O)(O)C(O)(c1cccc(-c2ccccc2)c1)P(=O)(O)O	TcHK	23
O=P(O)(O)C(Nc1cccc(Br)c1)P(=O)(O)O	TcHK	≥ 812
COCc1cccc(NC(P(=O)(O)O)P(=O)(O)O)c1	TcHK	> 237
O=P(O)(O)C(Nc1cccc(CO)c1)P(=O)(O)O	TcHK	≥ 67

* * *

Tested on: Dictyostelium discoideum
Assay: Cytotoxicity to Dictyostelium discoideum
Type: functional, organism-based
pIC50: −log10 of the molar value.

chemical.structure	pIC50
CCCCCCCCCC(O)(P(=O)(O)O)P(=O)(O)O	5.00
O=P(O)(O)C(O)(C[n+]1cccc(-c2ccccc2)c1)P(=O)(O)O	5.52
CCn1c2ccccc2c2cc(NC(P(=O)(O)O)P(=O)(O)O)ccc21	2.69
COc1ccc(NC(P(=O)(O)O)P(=O)(O)O)cn1	4.28
CCCCCCCc1ccc(NC(P(=O)(O)O)P(=O)(O)O)cc1	5.00
COCc1cccc(NC(P(=O)(O)O)P(=O)(O)O)c1	3.60
O=P(O)(O)C(Nc1cccc(-c2ccccc2)c1)P(=O)(O)O	3.68
O=P(O)(O)C(CNc1cccc(-c2ccccc2)c1)P(=O)(O)O	4.21
O=P(O)(O)C(NC1CC1)P(=O)(O)O	4.52
Cc1cccc(Cc2ccc[n+](CC(O)(P(=O)(O)O)P(=O)(O)O)c2)c1	3.05
O=P(O)(O)C(Nc1cccc(CO)c1)P(=O)(O)O	3.45
CCCCN(CC)C(P(=O)(O)O)P(=O)(O)O	5.40
C[N+](C)=c1ccn(CC(O)(P(=O)(O)O)P(=O)(O)O)cc1	4.52
Cc1cccnc1NC(P(=O)(O)O)P(=O)(O)O	5.52
CC(C)(C)c1cccc(NC(P(=O)(O)O)P(=O)(O)O)c1	4.12
O=P(O)(O)C(O)(C[n+]1ccccc1)P(=O)(O)O	5.52
